Recorded ED50 by entry
- Organism: Cavia porcellus
- Assay Protocol: Negative inotropic potency on isolated guinea pig left atrium
- Type: functional, Cardiac atrium
# number only, unit uM l-1 dropped from output

Known results for compounds:
Input: Requested field: ED50. Item: O=C1CCC2C(c3ccccc3)Sc3ccccc3N12 (centres undefined)
Output: 0.23

Input: Try CC(=O)OC1=C(c2ccccc2)Sc2ccccc2N2C(=O)CCC12 (centres undefined) next.
Output: 1.1

Input: Input COc1ccc(C2Sc3ccccc3N3C(=O)CCC23)cc1 (centres undefined)
Output: 1.2

# ---- query compound ----
Input: Find the recorded ED50 belonging to `COc1ccc([C@@H]2Sc3ccccc3N(CCN(C)C)C(=O)[C@@H]2OC(C)=O)cc1` and report it.
Output: 0.79
